EXPERIMENT NOTES: NCI Yeast Anticancer Drug Screen. Data for the cln2 rad14 strain (AID 165);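 also: 0% = growth equal to vehicle treated cultures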
CONDITION INFO: S. cerevisiae cln2 rad14 strain, at 5.0 µM (retest, dose inferred, filed as 0.5), hits give high values
About 79,000 compounds went through this panel and 15% of them were active in at least one assay; those are over-represented in the sample as a whole.
ASSAY ENDPOINT: growth inhibition (%)

compound=CC(C)=CCC/C(C)=C/CC/C(C)=C/CSc1ccccc1C(=O)O assay_endpoint="growth inhibition" measured_result=8
compound="O=P(OCCCl)(OCCCl)C(Nc1cccc2ccccc12)c1ccccc1 (centres undefined)" assay_endpoint="growth inhibition" measured_result=-1
compound="O=S(=O)(c1ccccc1)C1CN=NC1c1ccccc1 (centres undefined)" assay_endpoint="growth inhibition" measured_result=-2
compound=N[C@@H]1CCCC[C@@H]1N.O=C([O-])CN(CP(=O)([O-])[O-])CP(=O)([O-])[O-].[Pt+2] assay_endpoint="growth inhibition" measured_result=3
compound=Cc1cc(OCCl)ccc1[N+](=O)[O-] assay_endpoint="growth inhibition" measured_result=-1
compound=C[n+]1c(/C=C/c2ccccc2Cl)ccc2ccccc21 assay_endpoint="growth inhibition" measured_result=0
compound=COc1ccc(-c2c(C#N)c(S)n(NS(=O)(=O)c3ccc(C)cc3)c(=O)c2C#N)cc1 assay_endpoint="growth inhibition" measured_result=48
compound="COc1cc(OC)cc(C2SCC(=O)N2c2nncs2)c1 (centres undefined)" assay_endpoint="growth inhibition" measured_result=-2
compound=COc1ccc2c(c1)CCCN2CCCCCCCN1CCCCC1 assay_endpoint="growth inhibition" measured_result=22
compound=CCc1nc2ccc(N=NN(C)C)cc2[nH]1 assay_endpoint="growth inhibition" measured_result=22
compound="CCN(CC)CC(O)c1ccc(/C=C/c2ccc(Cl)cc2)cc1 (centres undefined)" assay_endpoint="growth inhibition" measured_result=12
compound=CC(C)SC(=S)Nc1cc(C(F)(F)F)ccc1Cl assay_endpoint="growth inhibition" measured_result=-15
compound=Cc1cc2ccc(N)nc2[nH]c1=O assay_endpoint="growth inhibition" measured_result=-3
compound=COc1cc(OC)c(C(=O)[O][Sn]([c]2ccccc2)([c]2ccccc2)[c]2ccccc2)cc1OC assay_endpoint="growth inhibition" measured_result=99
compound="CC1=NOC(=O)C1N=Nc1ccc(Br)cc1C (centres undefined)" assay_endpoint="growth inhibition" measured_result=99
compound="COc1cccc2c1OC(c1ccc(C#N)cc1)C([N+](=O)[O-])=C2 (centres undefined)" assay_endpoint="growth inhibition" measured_result=47
compound=O=C(Oc1c(I)ccccc1=O)c1ccc([N+](=O)[O-])cc1 assay_endpoint="growth inhibition" measured_result=13
compound=O=[N+]([O-])c1cc(Cl)ccc1S(=O)(=O)c1ccccc1 assay_endpoint="growth inhibition" measured_result=22
compound=COc1cc(C=O)c(C=O)cc1OC assay_endpoint="growth inhibition" measured_result=9
compound=COc1ccc2c(C(=O)c3ccccc3)c3[n+](cc2c1OC)CCc1cc2c(cc1-3)OCO2 assay_endpoint="growth inhibition" measured_result=-4
compound=C=C1CCC[C@@]2(C)CC[C@@H](/C(C)=C\C=C\C(C)(C)O)C[C@H]12 assay_endpoint="growth inhibition" measured_result=-5
compound=CCOC(=O)/C=C(\C)c1ccc([N+](=O)[O-])cc1 assay_endpoint="growth inhibition" measured_result=-63
compound="C/C=C(\\C)C(=O)OC1C2C(C)=CC(=O)C(O)C2(C)C2C3(O)OCC24C1OC(=O)C(O)C4C(C)C3O (centres undefined)" assay_endpoint="growth inhibition" measured_result=8
compound=Cc1cc(N2C(=O)CSC2=S)c([N+](=O)[O-])cc1C assay_endpoint="growth inhibition" measured_result=7
compound=O=C(CSCc1c(F)cccc1Cl)Nc1ccc(F)c(Cl)c1 assay_endpoint="growth inhibition" measured_result=33
compound=CCOC(=O)c1sc2[n+](c1C)C(=O)/C(=C/c1ccc([N+](=O)[O-])cc1)S2 assay_endpoint="growth inhibition" measured_result=-4
compound=Nc1nnc(Cc2ccc(Br)cc2)o1 assay_endpoint="growth inhibition" measured_result=10
compound=Cc1ccc(S(=O)(=O)Nc2ccccc2SSc2ccccc2NS(=O)(=O)c2ccc(C)cc2)cc1 assay_endpoint="growth inhibition" measured_result=44
compound=CCCCCCCCCCCCNC(=O)C[n+]1cccc(C(=O)Nc2ccccc2)c1 assay_endpoint="growth inhibition" measured_result=99
compound=O=C1Nc2c(ccc(Cl)c2I)C1=O assay_endpoint="growth inhibition" measured_result=9
compound=CCCCCCCCCCCCCCCCNCCCN(C)CCCN assay_endpoint="growth inhibition" measured_result=-26
compound="CCC(c1ccc(O)cc1)C(CC)c1ccc(OCC(N)=O)cc1 (centres undefined)" assay_endpoint="growth inhibition" measured_result=-18
compound=C1=C(CC2=C[P+](c3ccccc3)(c3ccccc3)C=C(c3ccccc3)O2)OC(c2ccccc2)=C[P+]1(c1ccccc1)c1ccccc1 assay_endpoint="growth inhibition" measured_result=25
compound="CCC(=O)/C(=C\\c1ccccc1)C(=O)C(C)CN(C)C (centres undefined)" assay_endpoint="growth inhibition" measured_result=20
compound=COC(=O)/C=C/c1c2ccccc2cc2ccccc12 assay_endpoint="growth inhibition" measured_result=8
compound=O/N=C(/CCc1ccccc1Cl)c1ccccc1 assay_endpoint="growth inhibition" measured_result=-2
compound=S=C(NCCc1ccccn1)N/N=C/c1ccccn1 assay_endpoint="growth inhibition" measured_result=-3
compound="CCC(=C(c1ccc(OCCN(C)C)cc1)c1cccc(O)c1)c1ccccc1 (mixture of isomers)" assay_endpoint="growth inhibition" measured_result=34
compound="CN1CCN(CCSC2Cc3cc(Cl)ccc3Sc3ccccc32)CC1 (centres undefined)" assay_endpoint="growth inhibition" measured_result=1
